B1: CPEB3 Ribozyme (parent)
chain: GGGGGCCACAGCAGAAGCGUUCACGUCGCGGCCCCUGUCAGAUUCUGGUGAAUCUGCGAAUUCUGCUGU

variants of: B1; experiment: self-cleavage, relative activity (ratio to wild type); higher = more cleavage; co-transcriptional
variants and their reported self-cleavage
Just the number, please, no unit attached.

// GGGGGCCACAGCAGAAGCGUUCACGUCGCGGCCCCUGUCAGCUUCUGGUGAAUCUGCGAUUUCUGCUGU [A42C A60U] : self-cleavage value = 0.459

// GGGGGCCACAGCAGAAGCGUUCACGUCGCGGCCCAUGUCAGAUUCAGGUGAAUCUGCGAAUUCUGCUGU [C35A U46A] : self-cleavage value = 0.268
